MEASURED_TARGET: Meprin α (Homo sapiens)
Construct: gene MEP1A
Sequence (Q16819 66-712): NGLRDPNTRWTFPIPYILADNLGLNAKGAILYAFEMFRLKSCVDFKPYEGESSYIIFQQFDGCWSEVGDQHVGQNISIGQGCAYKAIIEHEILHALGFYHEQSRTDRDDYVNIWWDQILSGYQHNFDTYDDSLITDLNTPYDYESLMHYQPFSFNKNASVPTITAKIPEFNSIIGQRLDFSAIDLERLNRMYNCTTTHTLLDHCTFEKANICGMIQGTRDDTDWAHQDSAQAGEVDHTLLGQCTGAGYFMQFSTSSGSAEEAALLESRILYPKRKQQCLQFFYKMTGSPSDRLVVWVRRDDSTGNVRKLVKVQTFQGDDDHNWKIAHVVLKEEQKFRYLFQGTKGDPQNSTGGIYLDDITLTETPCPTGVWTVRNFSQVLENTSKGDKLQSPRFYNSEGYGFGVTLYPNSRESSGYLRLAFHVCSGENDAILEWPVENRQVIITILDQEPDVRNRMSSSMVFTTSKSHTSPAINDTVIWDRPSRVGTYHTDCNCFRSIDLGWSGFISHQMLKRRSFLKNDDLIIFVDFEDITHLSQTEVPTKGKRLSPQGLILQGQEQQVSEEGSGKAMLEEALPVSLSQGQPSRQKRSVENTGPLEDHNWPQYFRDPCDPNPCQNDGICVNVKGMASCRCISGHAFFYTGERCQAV
ASSAY_NOTES: fluorogenic peptide cleavage assay
Type: biochemical
Examples of compounds with documented IC50 follow.
Please give a number only; it is taken to be in nM.

Answered cases to consult:
[[record]]
compound = "COc1ccc(CCN(CCC(=O)NO)S(=O)(=O)c2ccc(NC(=O)NCCc3ccccc3)cc2)cc1 [S33A]"
numeric_value = 393

[[record]]
compound = "CNC(=O)[C@H](Cc1c[nH]c2ccccc12)NC(=O)[C@@H](CC(=O)NO)CC(C)C"
numeric_value = 185


// next entry
Data request: I have this compound here, CCCCC[C@H](CC(=O)NO)C(=O)N[C@H](C(=O)N1CCC[C@H]1CO)C(C)C , and I need its recorded IC50.
Data returned: 55

====

The following compounds are listed with their measured IC50 values.
MEASURED_TARGET: Meprin β (Homo sapiens)
Construct: gene MEP1B
Sequence (Q16820 62-652): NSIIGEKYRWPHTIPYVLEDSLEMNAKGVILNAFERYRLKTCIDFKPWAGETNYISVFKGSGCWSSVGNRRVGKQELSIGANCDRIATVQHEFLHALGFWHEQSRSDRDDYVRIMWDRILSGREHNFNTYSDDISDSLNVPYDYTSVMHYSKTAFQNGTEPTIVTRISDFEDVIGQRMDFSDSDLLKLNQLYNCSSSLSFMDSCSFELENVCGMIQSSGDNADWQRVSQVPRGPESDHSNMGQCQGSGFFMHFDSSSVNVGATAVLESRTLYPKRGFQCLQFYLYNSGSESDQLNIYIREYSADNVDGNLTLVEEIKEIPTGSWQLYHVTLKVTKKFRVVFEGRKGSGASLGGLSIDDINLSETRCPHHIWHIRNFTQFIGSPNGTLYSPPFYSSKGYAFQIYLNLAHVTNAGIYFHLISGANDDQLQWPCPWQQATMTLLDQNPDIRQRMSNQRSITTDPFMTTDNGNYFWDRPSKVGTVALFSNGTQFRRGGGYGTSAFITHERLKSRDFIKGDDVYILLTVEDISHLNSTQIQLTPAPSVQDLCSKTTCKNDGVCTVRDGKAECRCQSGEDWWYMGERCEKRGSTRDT
ASSAY_NOTES: fluorogenic peptide cleavage assay
Type: biochemical

[[record]]
compound = "CNC(=O)[C@H](Cc1c[nH]c2ccccc12)NC(=O)[C@@H](CC(=O)NO)CC(C)C [GM6001]"
measured_target = "Meprin β (Homo sapiens)"
result = "> 10000 nM"


Data request: Form: Entry = CCCCC[C@H](CC(=O)NO)C(=O)N[C@H](C(=O)N1CCC[C@H]1CO)C(C)C [Actinonin] | System = Meprin β (Homo sapiens) | IC50 = ____
Data returned: 744 nM

Data request: Now this one: COc1ccc(CCN(CCC(=O)NO)S(=O)(=O)c2ccc(NC(=O)NCCc3ccccc3)cc2)cc1 [S33A]
Data returned: > 10000 nM
